Test System: Bcl-xL, Q07817
Sequence (Q07817 1-209): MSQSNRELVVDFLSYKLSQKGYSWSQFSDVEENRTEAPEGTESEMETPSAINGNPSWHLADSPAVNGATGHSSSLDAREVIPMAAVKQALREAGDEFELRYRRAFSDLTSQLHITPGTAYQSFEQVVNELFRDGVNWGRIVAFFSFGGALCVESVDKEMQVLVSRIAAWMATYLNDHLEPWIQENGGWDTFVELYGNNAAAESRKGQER
Protocol Description: peptide SPOT array, c-Myc-tagged receptor at 1 uM or 100 nM, anti-c-Myc-Cy3
Measure Name: SPOT signal as a fraction of Bim BH3's signal on the same receptor and array

[1] SKEVAILCSFLLGLGDSCFNTQLLSI
[2] EVKQSMSSQSLDKAAEDMPEAEQDLE [APBA1]
[3] FSSDAVTSRVLLNVGQEVIAVVEENK [MOV10L1]
In: List the 3 entries from lowest SPOT signal as a fraction of Bim BH3's signal on the same receptor and array to highest SPOT signal as a fraction of Bim BH3's signal on the same receptor and array value. Answer format: the labels, ordered as requested.
Out: 2, 3, 1
